- tested target: full-length beta-Catenin (Uniprot ID P35222) (Homo sapiens)
- Construct: 10 nM full-length beta-Catenin (Uniprot ID P35222)
- Sequence (P35222 whole entry): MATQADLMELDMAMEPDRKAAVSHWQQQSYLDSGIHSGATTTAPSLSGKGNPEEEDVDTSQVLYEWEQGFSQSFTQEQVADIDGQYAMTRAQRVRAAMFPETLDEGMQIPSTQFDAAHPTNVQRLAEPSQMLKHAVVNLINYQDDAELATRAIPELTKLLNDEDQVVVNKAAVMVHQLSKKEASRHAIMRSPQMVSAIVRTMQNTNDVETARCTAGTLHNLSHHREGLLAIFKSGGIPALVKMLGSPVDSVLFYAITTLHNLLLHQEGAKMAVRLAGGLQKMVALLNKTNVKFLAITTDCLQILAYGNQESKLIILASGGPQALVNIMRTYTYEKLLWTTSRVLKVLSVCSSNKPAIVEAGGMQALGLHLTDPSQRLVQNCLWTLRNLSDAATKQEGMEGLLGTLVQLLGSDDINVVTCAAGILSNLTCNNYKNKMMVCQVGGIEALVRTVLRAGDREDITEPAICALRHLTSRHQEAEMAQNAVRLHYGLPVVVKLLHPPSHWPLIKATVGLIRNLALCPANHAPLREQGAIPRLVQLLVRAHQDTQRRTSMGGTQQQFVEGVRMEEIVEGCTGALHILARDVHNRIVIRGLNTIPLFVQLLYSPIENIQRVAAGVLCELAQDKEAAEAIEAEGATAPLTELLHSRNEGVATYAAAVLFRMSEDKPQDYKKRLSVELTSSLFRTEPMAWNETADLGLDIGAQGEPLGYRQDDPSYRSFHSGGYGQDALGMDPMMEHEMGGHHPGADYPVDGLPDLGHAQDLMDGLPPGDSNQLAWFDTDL
- method notes: Fluorescence polarization IC50 (beta-catenin / 5FAM-TCF4 10-53 competition)
- Type: binding
- condition details: read-out: beta-Catenin FP IC50
Below, each of the compounds is paired with its reported pIC50 value.
Quick note: pIC50 means taking -log10 of the concentration in moles per liter.

Below are worked cases with known answers.
CC(=O)N1CCC[C@]12CC=CCCCC1(CCCC=CCCCCOC(=O)N3CC[C@@](C(=O)N[C@@H](Cc4ccsc4)C(=O)N[C@@H](Cc4csc5ccccc45)C(=O)N[C@@H](CCC(N)=O)C(=O)N[C@H](C)C(N)=O)(C3)NC(=O)[C@H](CC(N)=O)NC(=O)[C@H](Cc3ccccc3)NC(=O)[C@H](C)NC(=O)[C@H](C)NC(=O)[C@H](CC(=O)O)NC(=O)[C@H](CC(=O)O)NC1=O)NC(=O)[C@H](CC(C)(C)C)NC(=O)[C@H](CC(=O)O)NC2=O (some centres unmarked) [I-831]; 7.96
CC(=O)N1CCC[C@]12CC=CCCCC1(CCCC=CCCCOC(=O)N3CC[C@@](C(=O)N[C@@H](Cc4ccsc4)C(=O)N[C@@H](Cc4csc5ccccc45)C(=O)N[C@@H](CCC(N)=O)C(N)=O)(C3)NC(=O)[C@H](CC(N)=O)NC(=O)[C@H](Cc3ccccc3)NC(=O)[C@H](CCCCNC(=O)c3ccc(CN4CCN(C)CC4)cc3)NC(=O)[C@H](C)NC(=O)[C@H](CC(=O)O)NC(=O)[C@H](CC(=O)O)NC1=O)NC(=O)[C@H](CC(C)(C)C)NC(=O)[C@H](CC(=O)O)NC2=O (some centres unmarked) [I-889]; 7.80
CC(=O)N1CCC[C@]12CC=CCCCC1(CCCC=CCCCCOC(=O)N3CC[C@@](C(=O)N[C@@H](Cc4ccsc4)C(=O)N[C@@H](Cc4csc5ccccc45)C(=O)N[C@@H](CCC(N)=O)C(N)=O)(C3)NC(=O)[C@H](CC(N)=O)NC(=O)[C@H](Cc3ccccc3)NC(=O)[C@H](C)NC(=O)[C@H](C)NC(=O)[C@H](CC(=O)O)NC(=O)[C@H](CC(=O)O)NC1=O)NC(=O)[C@H](CC(C)(C)C)NC(=O)[C@H](CC(=O)O)NC2=O (some centres unmarked) [I-767]; 7.92
COCCOCCOCCOCCC(=O)NCCCC[C@H](NC(=O)[C@H](CCC(N)=O)NC(=O)[C@H](Cc1csc2ccccc12)NC(=O)[C@H](Cc1ccsc1)NC(=O)[C@]12CCN(C1)C(=O)OCCCC=CCCCC1(CCCC=CC[C@]3(CCCN3C(C)=O)C(=O)N[C@@H](CC(=O)O)C(=O)N[C@@H](CC(C)(C)C)C(=O)N1)C(=O)N[C@@H](CC(=O)O)C(=O)N[C@@H](CC(=O)O)C(=O)N[C@@H](C)C(=O)N[C@@H](C)C(=O)N[C@@H](Cc1ccccc1)C(=O)N[C@@H](CC(N)=O)C(=O)N2)C(N)=O (some centres unmarked) [I-912]; 8.00

The record that follows has no pIC50 shown yet.
Look up pIC50 with full-length beta-Catenin (Uniprot ID P35222) (Homo sapiens) for this compound: CC(=O)N1CCC[C@]12CC=CCCCC1(CCCC=CCCCOC(=O)N3CC[C@@](C(=O)N[C@@H](Cc4ccsc4)C(=O)N[C@@H](Cc4csc5ccccc45)C(=O)N[C@@H](CO)C(N)=O)(C3)NC(=O)[C@H]([C@@H](C)O)NC(=O)[C@H](Cc3ccccc3)NC(=O)[C@H](C)NC(=O)[C@H](C)NC(=O)[C@H](CN(CC(=O)O)CC(F)(F)F)NC(=O)[C@H](CC(=O)O)NC1=O)NC(=O)[C@H](CC(C)(C)C)NC(=O)[C@H](CC(=O)O)NC2=O (some centres unmarked) [I-957]
5.85
